Tested on: CEM cells HIV-1 protection, formazan growth assay
Test: NCI AIDS Antiviral Assay
Conditions: measured here: growth of uninfected CEM cells
A collection of molecules and their measured log10 of IC50
Endpoint Name: log10 of IC50 (log10 of the value in µM)

INSERT INTO assay_data (molecule, endpoint_name, measured_result) VALUES
  ('COc1ccc(C2c3cc4c(cc3OC(Nc3ccccc3)C2C)OCO4)cc1 (stereo not drawn)', 'log10 of IC50', 1.39),
  ('C=C[C@@]1(C)CC2(C=C(CO)C(O)O2)Oc2c1c(=O)oc1cccc(C)c21 (stereo partly drawn)', 'log10 of IC50', 0.48),
  ('Cc1nc2cccc([N+](=O)[O-])c2c(NCCCN(C)C)c1C', 'log10 of IC50', 1.61),
  ('CCO/C=N\c1c(C#N)c(-c2ccc(Cl)cc2)cn1-c1ccc(C)cc1', 'log10 of IC50', 1.40),
  ('CCCCCCCCCCCCCCCC(=O)Nc1nc(=O)n(C2CCC(COP(=O)(O)OCC3OC(n4cc(C)c(=O)[nH]c4=O)CC3N=[N+]=[N-])O2)cc1C (stereo not drawn)', 'log10 of IC50', 2.06),
  ('CCNC(=S)NCCc1c[nH]c2ccccc12', 'log10 of IC50', 2.27),
  ('COc1ccc(/C=C/C(=O)c2cc(C(C)(C)C)c(O)c(C(C)(C)C)c2)cc1', 'log10 of IC50', 0.70),
  ('COC1=CC(=O)C(CO)=CC1=O', 'log10 of IC50', 0.88),
  ('O=C1Oc2cc3c(c4cccc1c24)OCN(c1ccccc1)C3', 'log10 of IC50', 1.39),
  ('CCOC(=O)N1CC(C)=C(C)CN1C(=O)Nc1ccc(Cl)c(Cl)c1', 'log10 of IC50', 1.91),
  ('CCn1c(SCC(=O)NNC(=S)Nc2ccc(C)cc2)nc2ccccc2c1=O', 'log10 of IC50', 2.02),
  ('COc1cc2c(cc1O)[C@H]1COc3ccccc3[C@H]1O2', 'log10 of IC50', 0.69),
  ('CN1CC(C)(C)NC(=O)[C@@](C)(OCc2ccccc2)CN(C)CC(C)(C)NC(=O)[C@](C)(OCc2ccccc2)C1', 'log10 of IC50', 2.08),
  ('Oc1ccccc1/C=N\NC(=S)Nc1ccc2cn[nH]c2c1', 'log10 of IC50', 2.10),
  ('CCSCCCCCCCCCCCC(=O)OCC1OC(n2cc(C)c(=O)[nH]c2=O)CC1F (stereo not drawn)', 'log10 of IC50', 0.30),
  ('CC1(C)CC(=O)C2C(C1)OC1CC(C)(C)CC(=O)C1C2c1ccc2c(c1)OCO2 (stereo not drawn)', 'log10 of IC50', 2.19),
  ('N=C(N)SCc1ccc(Cl)cc1Cl (tested in a mixture with another compound)', 'log10 of IC50', 1.78),
  ('COc1ccc(C(O)/C(=N/N)c2nc3ccc(Cl)cc3[nH]c2=O)cc1 (stereo not drawn)', 'log10 of IC50', 2.40),
  ('O=C1OI(C#Cc2ccccc2)c2ccccc21', 'log10 of IC50', 0.52),
  ('O=C(O)CN(CC(=O)O)Cc1cc(C#Cc2ccc(C#Cc3ccccc3)cc2)cc(CN(CC(=O)O)CC(=O)O)n1', 'log10 of IC50', 1.29),
  ('CC12CCC(OC3OC(CO)C(OC4OC(CO)C(O)C(O)C4O)C(O)C3O)CC1CCC1C2CCC2(C)C(C3=CC(=O)OC3)CCC12O (stereo not drawn)', 'log10 of IC50', -0.51),
  ('CCOC(=O)CCCc1cc[c]([Sb](=[O])([OH])[OH])cc1', 'log10 of IC50', 1.86),
  ('COc1ccccc1NC(=O)C(/C=N/C(=S)NCCNc1ccc(OC)c(OC)c1)=C(\C)O', 'log10 of IC50', 1.71);
